- Test system: MRC-5 cells (healthy lung fibroblast)
- method notes: Cytotoxic analysis (IC50) of adherent cell lines, resazurin: MRC-5
- Type: cell-based
- condition notes: normal MRC-5 cells, 24 h incubation, read-out: IC50 ± SD, MRC-5
Each entry below carries its reported IC50.
Your answer is read as µM, so omit the unit and give the number.

compound	IC50, µM
O.O.O.O.O.O.[Cl][Zn][Cl] [ZnCl2·6H2O]	240

API: the following record is the query input.
What does the data say about its IC50? Entry: N.N.[Cl][Pt][Cl] [Cisplatin, reference compound]
46.2

Values from paper PMC4881598
